Target: Amino acid transporter (Rattus norvegicus)
Sequence (whole entry): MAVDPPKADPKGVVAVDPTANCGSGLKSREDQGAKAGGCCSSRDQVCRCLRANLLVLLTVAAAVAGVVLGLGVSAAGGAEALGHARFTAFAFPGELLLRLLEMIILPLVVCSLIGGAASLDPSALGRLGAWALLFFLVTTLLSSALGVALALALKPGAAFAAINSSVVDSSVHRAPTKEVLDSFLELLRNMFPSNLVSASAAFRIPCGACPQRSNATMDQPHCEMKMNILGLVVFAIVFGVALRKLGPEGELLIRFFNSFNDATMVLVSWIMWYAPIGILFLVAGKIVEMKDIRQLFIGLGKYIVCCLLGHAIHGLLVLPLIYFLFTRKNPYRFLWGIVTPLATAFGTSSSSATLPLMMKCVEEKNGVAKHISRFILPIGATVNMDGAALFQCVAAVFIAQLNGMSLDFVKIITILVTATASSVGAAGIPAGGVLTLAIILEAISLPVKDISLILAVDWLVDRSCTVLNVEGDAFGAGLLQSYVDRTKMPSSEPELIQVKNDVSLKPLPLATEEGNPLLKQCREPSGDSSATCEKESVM
Assay: Inhibition of rat ASCT2 expressed in HEK293 cells assessed as inhibition of L-alanine/Na+ exchange by measuring reduction in SCN anion inward current at 1 mM in presence of NaCl and NaSCN by whole cell patch-clamp method
Type: cell-based
Quantity Kind: Imax (%)

As a guide, the following entries are already answered.
# Compound, Quantity Kind, Value Reported
rows = [
    ("O=C(O)C1C[C@@H](Cc2ccccc2)CN1 (single isomer, unassigned)", "Imax", 52),
    ("O=C(O)C1C[C@@H](Cc2ccc(F)c(F)c2)CN1 (single isomer, unassigned)", "Imax", 51),
    ("O=C(O)C1C[C@@H](Cc2ccccc2F)CN1 (single isomer, unassigned)", "Imax", 61),
    ("O=C(O)[C@@H]1C[C@@H](Cc2ccc(Cl)cc2Cl)CN1", "Imax", 56),
    ("O=C(O)C1C[C@@H](Cc2ccccc2Cl)CN1 (single isomer, unassigned)", "Imax", 46),
]

P: O=C(O)C1C[C@@H](Cc2cccc(C(F)(F)F)c2)CN1 (single isomer, unassigned)
Q: O=C(O)C1C[C@@H](Cc2cccc(F)c2)CN1 (single isomer, unassigned)
Which has the smaller recorded Imax, P or Q ? Respond using the label that marks the chosen record. P
(P: 43%, Q: 67%)

###

Molecular target: Amino acid transporter (Rattus norvegicus)
Assay: Inhibition of rat ASCT2 expressed in HEK293 cells assessed as outward current by measuring reduction in SCN anion inward current at 1 mM in presence of NaCl and NaSCN by whole cell patch-clamp method
Format: cell-based
Active and inactive are the calls of the source. The rule behind the calls is not given here.
Quantity Kind: inhibition

# Molecule, Quantity Kind, Value Reported
records = [
    ("O=C(O)C1C[C@@H](Cc2ccc(F)c(F)c2)CN1 (single isomer, unassigned)", "inhibition", "Active"),
    ("O=C(O)[C@@H]1C[C@@H](Cc2ccc(-c3ccccc3)cc2)CN1", "inhibition", "Active"),
    ("O=C(O)C1C[C@@H](Cc2ccccc2Br)CN1 (single isomer, unassigned)", "inhibition", "Active"),
]

###

Target: Amino acid transporter (Rattus norvegicus)
Experiment: Inhibition of rat ASCT2 expressed in HEK293 cells assessed as inhibition of L-alanine/Na+ exchange by measuring reduction in SCN anion inward current in presence of NaCl and NaSCN by whole cell patch-clamp method
Details: read-out: Ki(app)
Quantity Kind: Ki (µM)

As a guide, the following entries are already answered.
# Compound, Ki [µM]
rows = [
    ("O=C(O)C1C[C@@H](Cc2ccc(F)c(F)c2)CN1 (single isomer, unassigned)", 73),
    ("O=C(O)[C@@H]1C[C@@H](Cc2ccc(-c3ccccc3)cc2)CN1", 3),
    ("O=C(O)C1C[C@@H](Cc2ccccc2C(F)(F)F)CN1 (single isomer, unassigned)", 220),
    ("O=C(O)C1C[C@@H](Cc2cccc(F)c2)CN1 (single isomer, unassigned)", 177),
    ("O=C(O)C1C[C@@H](Cc2ccccc2Cl)CN1 (single isomer, unassigned)", 195),
]

1: O=C(O)C1C[C@@H](Cc2ccc(F)cc2)CN1 (single isomer, unassigned)
2: O=C(O)C1C[C@@H](Cc2ccccc2)CN1 (single isomer, unassigned)
Which has the smaller recorded Ki, 1 or 2 ? Respond using the label that marks the chosen record. 1
(1: 190 µM, 2: 2000 µM)
